experiment: Pharmacokinetic study after oral and intravenous administration to Wistar rats; type: in vivo; details: rat, plasma; intravenous 10 mg/kg, female Wistar rats

Line notation | C0
CS(=O)(=O)c1ccc(-c2cc(C(=O)O)c3cc(C(=O)c4ccccc4)ccc3n2)cc1 | 86.8 µg/mL

* * *

assay: Pharmacokinetic study after oral and intravenous administration to Wistar rats; format: in vivo; settings: rat, plasma; oral 20 mg/kg, male Wistar rats
Recorded endpoint: Tmax (min)

Compound | Number
CS(=O)(=O)c1ccc(-c2cc(C(=O)O)c3cc(C(=O)c4ccccc4)ccc3n2)cc1 [AZGH101] | 30

* * *

assay: Pharmacokinetic study after oral and intravenous administration to Wistar rats; assay type: in vivo; settings: rat, plasma; intravenous 10 mg/kg, female Wistar rats

Compound | clearance, mL/min
CS(=O)(=O)c1ccc(-c2cc(C(=O)O)c3cc(C(=O)c4ccccc4)ccc3n2)cc1 [AZGH101] | 0.527

* * *

experiment: Pharmacokinetic study after oral and intravenous administration to Wistar rats; format: in vivo; details: rat, plasma; oral 20 mg/kg, male Wistar rats
Recorded endpoint: Cmax

Line notation | Result
CS(=O)(=O)c1ccc(-c2cc(C(=O)O)c3cc(C(=O)c4ccccc4)ccc3n2)cc1 | 20400 ng/mL

* * *

test: Pharmacokinetic study after oral and intravenous administration to Wistar rats; type: in vivo; settings: rat, plasma; oral 20 mg/kg, female Wistar rats; read-out: t1/2 β (converted)

Line notation | Unit info | half-life
CS(=O)(=O)c1ccc(-c2cc(C(=O)O)c3cc(C(=O)c4ccccc4)ccc3n2)cc1 | h | 5.34

* * *

experiment: Pharmacokinetic study after oral and intravenous administration to Wistar rats; format: in vivo; conditions: rat, plasma; intravenous 10 mg/kg, male Wistar rats

Line notation | AUC(0-inf) / ng·h/mL
CS(=O)(=O)c1ccc(-c2cc(C(=O)O)c3cc(C(=O)c4ccccc4)ccc3n2)cc1 | 77100

* * *

test: Pharmacokinetic study after oral and intravenous administration to Wistar rats; assay type: in vivo; conditions: rat, plasma; oral 20 mg/kg, female Wistar rats
Recorded endpoint: Cmax (ng/mL)

Molecule | Recorded endpoint | Number
CS(=O)(=O)c1ccc(-c2cc(C(=O)O)c3cc(C(=O)c4ccccc4)ccc3n2)cc1 [AZGH101] | Cmax | 21800

* * *

test: Aqueous solubility (OECD Guideline No. 105); type: physicochemical; conditions: water; 3 replications

Line notation | solubility [µg/mL]
CS(=O)(=O)c1ccc(-c2cc(C(=O)O)c3cc(C(=O)c4ccccc4)ccc3n2)cc1 | 1.4

* * *

test: Pharmacokinetic study after oral and intravenous administration to Wistar rats; type: in vivo; details: rat, plasma; intravenous 10 mg/kg, male Wistar rats; read-out: t1/2 β (converted)

Compound | half-life [h]
CS(=O)(=O)c1ccc(-c2cc(C(=O)O)c3cc(C(=O)c4ccccc4)ccc3n2)cc1 [AZGH101] | 2.01

Source of measurements: paper PMC5937083
